Would you kindly list CD23: Fold bioactivity relative to IL13-1307 for each of these binders?
test system: human IL-13 (human, UniProt P35225 35-146)
Sequence (P35225 35-146 limits assumed, form in doubt): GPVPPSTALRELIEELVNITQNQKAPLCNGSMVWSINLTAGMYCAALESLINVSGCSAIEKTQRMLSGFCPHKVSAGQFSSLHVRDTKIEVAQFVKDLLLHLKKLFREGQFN
assay text: cell-based or functional assay

[[record]]
binder = "IL13-1308 (antibody, IgG1, V domains shown) VH: EVQLVESGGGLVQPGGSLRLSCAASGFTFSSYAMSWVRQAPGKGLEWVASISSGDTTYYPDSVKGRFTISRDNAKNSLYLQMNSLRAEDTAVYYCARLDGYYFGFPYWGQGTLVTVSS VL: DIQMTQSPSSLSASVGDRVTITCKASESVDHFGWSLVHWYQQKPGKAPKLLIYRASNLESGVPSRFSGSGSGTDFTLTISSLQPEDFATYYCQQSNEDPWTFGGGTKVEIKR"
recorded_result = "21.3 fold"

[[record]]
binder = "IL13-1338 (antibody, IgG1, V domains shown) VH: EVQLVESGGGLVQPGGSLRLSCAASGFTFSSYAMSWVRQAPGKGLEWVASISSGDTTYYPDSVKGRFTISRDNAKNSLYLQMNSLRAEDTAVYYCARNEGYYFGLTLWGQGTLVTVSS VL: DIQMTQSPSSLSASVGDRVTITCKASESVDHSGSSLMHWYQQKPGKAPKLLIYRASNLESGVPSRFSGSGSGTDFTLTISSLQPEDFATYYCQQSNEDPWTFGGGTKVEIK"
recorded_result = "26.5 fold"

[[record]]
binder = "IL13-0001 (antibody, human IgG1, kappa, V domains shown, also called IL13433-0001; 1RVHC9-VLA4) VH: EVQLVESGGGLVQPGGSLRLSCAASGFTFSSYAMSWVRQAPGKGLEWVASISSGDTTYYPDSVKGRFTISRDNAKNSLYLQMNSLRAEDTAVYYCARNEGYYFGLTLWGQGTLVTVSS VL: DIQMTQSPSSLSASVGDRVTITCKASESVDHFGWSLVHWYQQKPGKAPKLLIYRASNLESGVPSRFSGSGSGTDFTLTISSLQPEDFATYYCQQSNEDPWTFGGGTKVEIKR"
recorded_result = "29.1 fold"


Now, please, on to the next binder.
Incoming: Field request: CD23: Fold bioactivity relative to IL13-1307 | item: IL13-1307 (antibody, IgG1, V domains shown) VH: EVQLVESGGGLVQPGGSLRLSCAASGFTFSSYAMSWVRQAPGKGLEWVASISSGDTTYYPDSVKGRFTISRDNAKNSLYLQMNSLRAEDTAVYYCARLDGYYFGFPYWGQGTLVTVSS VL: DIQMTQSPSSLSASVGDRVTITCKASESVDHSGSSLMHWYQQKPGKAPKLLIYRASNLESGVPSRFSGSGSGTDFTLTISSLQPEDFATYYCQQSNEDPWTFGGGTKVEIK
Outgoing: 1 fold
